Values from patent US9511073B2

Each entry below lists one item and its recorded MIC value.
system: Staphylococcus aureus (Isolate ID ATCC 29213); test: Bacterial assay: MIC by broth microdilution or agar dilution (CLSI), S. aureus ATCC 29213; assay type: cell-based; conditions: Staphylococcus aureus, ATCC29213, read-out: S. aureus MIC (μg/mL) Activity Range, S. aureus (ATCC29213)

Below: 6 molecules and their reported MIC.
Cc1ccc(CNC(=O)OCC(Oc2ccc(F)c(C(N)=O)c2F)c2nc(-c3ccc(C(F)(F)F)cc3)c(Br)o2)cn1 (stereo not shown)	0.25 to 1 µg/mL
NCCNC(=O)OCC(Oc1ccc(F)c(C(N)=O)c1F)c1nc(-c2ccc(C(F)(F)F)cc2)c(Br)o1 (stereo not shown)	1 to 16 µg/mL
Cc1nccn1CCNC(=O)OCC(Oc1ccc(F)c(C(N)=O)c1F)c1nc(-c2ccc(C(F)(F)F)cc2)c(Br)o1 (stereo not shown)	1 to 16 µg/mL
Cc1cccc(CNC(=O)OCC(Oc2ccc(F)c(C(N)=O)c2F)c2nc(-c3ccc(C(F)(F)F)cc3)c(Br)o2)n1 (stereo not shown)	0.25 to 1 µg/mL
CC(Oc1ccc(F)c(C(N)=O)c1F)c1nc(Br)cs1 (stereo not shown)	1 to 16 µg/mL
NC(=O)c1c(F)ccc(OC(CO)c2coc(-c3ccc(C(F)(F)F)cc3)n2)c1F (stereo not shown)	1 to 16 µg/mL

Note: attention shifts to another entry.
Need MIC of CCC(Oc1ccc(F)c(C(N)=O)c1F)c1nc(CCO)oc1Br (stereo not shown) , thanks.
> 16 µg/mL
